Data origin, for the record: patent US5618844A

# target of assay: Human Neutrophil Collagenase (Homo sapiens)
# Sequence (P22894 100-262): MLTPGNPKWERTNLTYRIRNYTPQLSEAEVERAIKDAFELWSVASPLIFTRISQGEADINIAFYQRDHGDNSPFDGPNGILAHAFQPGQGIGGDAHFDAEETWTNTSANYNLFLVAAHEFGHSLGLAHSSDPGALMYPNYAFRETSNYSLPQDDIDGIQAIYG
# assay comment: inhibition of recombinant MMP, peptide substrate assay with fluorescamine detection (HNC)
# condition description: calculated from measured percent inhibition using Km, assuming competitive inhibition; Met100-Gly262
value type: Ki (nM)

Take a look at these entries with their results.
{"compound": "CNC(=O)[C@H](Cc1ccccc1)NC(=O)[C@H](CCCC(C)O)CC(=O)NO (stereo partly drawn)", "target of assay": "Human Neutrophil Collagenase (Homo sapiens)", "measured result": 20}
{"compound": "CNC(=O)[C@@H](NC(=O)[C@H](CCCCOCc1ccccc1)CC(=O)NO)C(C)(C)C", "target of assay": "Human Neutrophil Collagenase (Homo sapiens)", "measured result": 5}
{"compound": "CNC(=O)[C@@H](NC(=O)[C@H](CCCC(=O)NCCc1ccccc1)CC(=O)NO)C(C)(C)C", "target of assay": "Human Neutrophil Collagenase (Homo sapiens)", "measured result": 16}

P = CNC(=O)[C@@H](NC(=O)[C@H](CCCCO)CC(=O)NO)C(C)(C)C
Q = CCCC(=O)NCCCC[C@H](CC(=O)NO)C(=O)N[C@@H](Cc1ccccc1)C(=O)NC
R = CNC(=O)[C@H](Cc1ccccc1)NC(=O)[C@H](CCCCCOCc1ccccc1)CC(=O)NO
S = CNC(=O)[C@H](Cc1ccccc1)NC(=O)[C@H](CCCCO)CC(=O)NO
T = CNC(=O)[C@H](Cc1ccccc1)NC(=O)[C@H](CCCC(=O)O)CC(=O)NO
Prompt: Order the 5 compounds from highest to lowest Ki. Output spec: a listing of the labels in the requested order.
Completion: T, Q, P, S, R
(T: 270 nM, Q: 120 nM, P: 17 nM, S: 7 nM, R: 4 nM)

###

# target of assay: Human Fibroblast Collagenase (Homo sapiens, UniProt P03956)
# Construct: All active MMPs are purified by gel filtration
# Sequence (P03956 100-269 limits assumed): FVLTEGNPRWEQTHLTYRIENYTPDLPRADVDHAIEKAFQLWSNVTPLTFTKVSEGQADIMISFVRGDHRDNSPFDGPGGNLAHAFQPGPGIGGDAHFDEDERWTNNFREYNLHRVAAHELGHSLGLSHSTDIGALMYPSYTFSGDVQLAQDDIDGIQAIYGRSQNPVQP
# assay comment: inhibition of recombinant MMP, peptide substrate assay with fluorescamine detection (HFC)
# condition description: calculated from measured percent inhibition using Km, assuming competitive inhibition; Met1-Pro250 proenzyme, activated with p-aminophenylmercury
value type: Ki (nM)

{"compound": "CNC(=O)[C@H](Cc1ccccc1)NC(=O)[C@H](CCCC(C)O)CC(=O)NO (some centres unmarked)", "measured result": 150}

A = CNC(=O)[C@@H](NC(=O)[C@H](CCCCOc1ccc(Cl)cc1)CC(=O)NO)C(C)(C)C
B = CNC(=O)[C@H](Cc1ccccc1)NC(=O)[C@H](CCCCOc1ccccc1)CC(=O)NO
C = CNC(=O)[C@@H](NC(=O)[C@H](CCCC(=O)NCCc1ccccc1)CC(=O)NO)C(C)(C)C
Prompt: Sort (3 compounds) by Ki: min first. Output spec: a listing of the labels in the requested order.
Completion: B, A, C
(B: 8 nM, A: 21 nM, C: 35 nM)
